Values compiled from patent US20210380675A1.

Documented kon across a set of binders
Biological target: T1, human IL-36γ, truncated (human, UniProt Q9NZH8 18-169)
T1 construct: Bought from R&D Systems (cat 6835-IL); also called human IL-36 gamma; hIL-36gamma
T1 sequence: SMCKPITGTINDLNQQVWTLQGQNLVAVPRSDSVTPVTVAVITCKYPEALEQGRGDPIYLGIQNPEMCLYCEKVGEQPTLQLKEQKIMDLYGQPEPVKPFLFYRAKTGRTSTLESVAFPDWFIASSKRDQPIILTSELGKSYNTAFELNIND
Assay: SPR, Biacore, 1:1 Langmuir fit; heads of c3 and c4 printed swapped
REPORTED_PROPERTY: kon

binder="144D464A LV9are HV10b (antibody, V domains shown, Humanized) VH: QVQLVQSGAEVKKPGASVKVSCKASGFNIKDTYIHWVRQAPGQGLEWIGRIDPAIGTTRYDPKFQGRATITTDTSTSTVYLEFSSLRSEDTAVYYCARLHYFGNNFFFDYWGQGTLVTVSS VL: QAVVTQEPSLTVSPGGTVTLTCRSSSGAVTTSNYANWVQEKPGQLFAGLIGGTNDRAPGVPARFSGSLLGGKAALTLSGAQPEDEADYFCALWFSNHWVFGGGTKLTVL" result="336000 M⁻¹ s⁻¹"
binder="144L249B LV9 HV11 (antibody, V domains shown, Humanized) VH: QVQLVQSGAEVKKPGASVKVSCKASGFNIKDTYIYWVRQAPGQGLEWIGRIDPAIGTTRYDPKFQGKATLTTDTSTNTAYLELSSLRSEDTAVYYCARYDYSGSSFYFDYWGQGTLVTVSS VL: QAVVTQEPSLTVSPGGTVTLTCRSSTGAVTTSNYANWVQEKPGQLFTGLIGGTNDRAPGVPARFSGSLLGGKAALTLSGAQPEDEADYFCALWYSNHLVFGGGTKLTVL" result="888000 M⁻¹ s⁻¹"
binder="144L249B LV7a HV11 (antibody, V domains shown, Humanized) VH: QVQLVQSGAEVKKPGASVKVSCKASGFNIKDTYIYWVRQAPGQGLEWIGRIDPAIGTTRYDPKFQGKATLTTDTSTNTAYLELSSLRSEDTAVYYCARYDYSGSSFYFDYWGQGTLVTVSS VL: QAVVTQEPSLTVSPGGTVTLTCRSSTGAVTTSNYANWVQQKPGQAFTGLIGGTNDRAPGVPARFSGSLLGGKAALTISGAQPEDEADYFCALWYSNHLVFGGGTKLTVL" result="859000 M⁻¹ s⁻¹"
binder="144D464A LV7a HV10b (antibody, V domains shown, Humanized; also called humanized 144D464A antibody LV7a HV10b) VH: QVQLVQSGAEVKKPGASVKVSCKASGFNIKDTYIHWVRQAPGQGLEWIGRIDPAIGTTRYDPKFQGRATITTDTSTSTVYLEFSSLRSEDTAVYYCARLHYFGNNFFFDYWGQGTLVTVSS VL: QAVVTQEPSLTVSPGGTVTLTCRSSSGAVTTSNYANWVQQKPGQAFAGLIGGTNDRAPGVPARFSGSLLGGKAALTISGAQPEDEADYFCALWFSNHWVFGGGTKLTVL" result="343000 M⁻¹ s⁻¹"
